Recorded Binding AUC values for a group of binders are listed next.
# Assayed System: T1, recombinant SARS-CoV-2 Spike RBD domain, BA.2.86 variant (SARS-CoV-2)
# T1 construct: also called RBD BA.2.86 variant
# Procedure Summary: ELISA on coated RBD
Form rule: numeric answer, no unit written next to it.

SPK002M C2 antibody (antibody, human IgG1, kappa, V domains shown) VH: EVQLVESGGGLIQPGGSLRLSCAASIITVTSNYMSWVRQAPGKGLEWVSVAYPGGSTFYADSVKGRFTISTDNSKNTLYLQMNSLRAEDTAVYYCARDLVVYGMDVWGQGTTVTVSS VL: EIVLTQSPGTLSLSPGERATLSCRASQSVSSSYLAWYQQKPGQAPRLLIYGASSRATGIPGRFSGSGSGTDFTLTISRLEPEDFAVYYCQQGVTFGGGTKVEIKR: 38

Reported Binding AUC for SPK002M C1 antibody (antibody, human IgG1, kappa, V domains shown) VH: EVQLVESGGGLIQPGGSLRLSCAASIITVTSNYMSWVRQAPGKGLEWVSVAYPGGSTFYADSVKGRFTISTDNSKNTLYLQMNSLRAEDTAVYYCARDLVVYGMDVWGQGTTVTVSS VL: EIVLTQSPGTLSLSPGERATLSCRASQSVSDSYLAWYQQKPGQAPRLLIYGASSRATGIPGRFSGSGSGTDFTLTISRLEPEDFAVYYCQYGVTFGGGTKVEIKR was 38

The reported numbers originate from patent US12281155.
